Form field: melting point (one value per entry).

Answered cases to consult:
CCc1nc(N)nc(N)c1N1CCNCC1; 204 to 207 °C
O=S(=O)(c1ccccc1)n1c2ccc(CCc3ccccc3)cc2c2cc(Cl)cnc21; 158 to 162 °C
COc1cc(C)c(C=CC(C)=CC=CC(C)=CC(=O)NC(C)C)c(C)c1C; 200 °C
CCOC(=O)C1C(=O)CC(C)(O)C(C(=O)OCC)C1c1cc(Br)c2oc(C)c(C)c2c1 (stereo not given); 194 to 195 °C
Cc1cccc(N)c1CNc1cccn2c(C=O)c(C)nc12; 230 to 234 °C
COc1cc(-c2ccccc2)cc(-c2ccccc2)c1; 93 to 94 °C
Cc1oc(-c2ccccc2)nc1CCOc1ccc(CC2SC(=O)NC2=O)cn1 (stereo not given); 191 to 192 °C
COc1ccc(/C=N/N2CCCCC2)cc1OC1CCCC1; 81 to 82 °C

// lookup melting point for `O=C(O)CCCCc1nn(-c2cccc(C(F)(F)F)c2)c2c1CCCC2`
105 °C

Entry under review: `N#Cc1ccc2cc(CCCCCc3cc4ccc(C#N)cc4o3)oc2c1` . Reported melting point?
106 to 107 °C

Form field: reported melting point of CCC1(NC(=O)c2cc(OC)ccn2)CCCCn2c1nc(-c1ccncn1)cc2=O (racemic)
200 to 202 °C

Endpoint output: melting point of O=C1C(Cc2ccccc2)NC(=S)N1c1nc(C(F)(F)F)cs1 (stereo not given) . Value?
187 to 189 °C

I'd like to know its melting point. The compound in question is CCOc1ccc(C(c2ccc(C(C)(C)C)cc2)C(CC)[N+](=O)[O-])cc1 (stereo not given)
95 to 97 °C

Dear colleague, I am looking for the recorded melting point of the following compound: `O=c1c2ccccc2ccn2ccnc12`
219 °C

Dear colleague, I am looking for the recorded melting point of the following compound: CC(C)C1COC(c2ccccc2CO)=N1 (stereo not given)
62 to 72 °C

* * *

Entries and their melting point values follow.

Cc1cccc2c1CCNC2=O; 141 to 143 °C
OCCCn1c(C2CCCCC2)nc2cc(Cl)ccc21; 95 °C
Cc1oc(-c2cccs2)nc1COc1ccc(CON=C(CCCCC(=O)O)c2ccccc2)cc1; 101 to 102 °C
COC1CC(C)(C)Cc2c1c(C)nn2-c1ccccn1 (configuration not stated); 66 to 68 °C

Which melting point value belongs to CCOC(=O)C1=C(C)NN=C(C(=O)OC)C1c1ccccc1C#N (configuration not stated) ?
199 °C

Return reported melting point; argument: Cc1nn(C(C)C(=O)N(C)C)c(C)c1-c1ccccc1 (configuration not stated)
122 to 124 °C

* * *

parameter_measured: melting point (°C)

NC(=O)Cc1ccc2c(c1)CCc1ccccc1C2=O; 174
C=C[C@@H]1O[C@](/C=C/C2CC2)(C(F)(F)F)c2cc(Cl)ccc2NC1=O (relative stereo); 166

* * *

Quick reference for melting point among some molecules

If you can, please state the reported melting point value of CS(=O)(=O)c1ccc(C(CC2CCOCC2)c2ccc(-c3nnc(CO)s3)[nH]2)cc1 (configuration not stated) .
199 to 201 °C

* * *

Items are presented alongside their recorded melting point.

O=C(NC1CCC(CCN2CCN(c3nccc4c3OCC4)CC2)CC1)C(O)C(F)(F)F (racemic); 185 °C
CCCCSc1cc(C(=O)OCC#N)cc(S(N)(=O)=O)c1Cc1ccccc1; 112 to 114 °C
Cc1ccc(NC(=O)c2cc(Cl)cc(C)n2)nc1; 159 °C
NC(=NCCCc1ccccn1)NCCCc1c[nH]cn1; 85 to 86 °C
CC1(C)CCC(C)(C)c2cc(Cn3cccn3)c(/C=C/c3ccc(C(=O)O)cc3)cc21; 246 to 248 °C
O=C(Nc1ccc(Cl)c(Cl)c1)c1ccccc1SSc1ccccc1C(=O)Nc1ccc(Cl)c(Cl)c1; 230 to 233 °C
CNc1nc(-c2cccc(-c3cccnc3)c2)c2cc(OC)c(OC)cc2n1; 186 to 188 °C
COC(=O)c1cc(Cl)cnc1NCc1ccc(OC)cc1; 75 to 77 °C

Fill in the blank: the reported melting point of `CCOC(=O)N[C@H](C(=O)NN(Cc1ccc(-c2cncs2)cc1)C[C@H](O)[C@H](Cc1ccccc1)NC(=O)[C@@H](NC(=O)OC)C(C)C)C(C)C` is ____.
243 to 244 °C

melting point for `O=c1ccc(S(=O)(=O)c2cc3cccc(Cl)c3[nH]2)n[nH]1` ?
248 to 250 °C

Consider the molecule `CCCCCNC(=O)[C@@H]1CCCN1C(=O)[C@H](C)NC(=O)CC` and give its measured melting point.
105 to 108 °C

Data request, read-out melting point, for CCC(CCSc1cc(OC)c(O)c(OC)c1)(c1cccs1)N(C)C (centres undefined)
78 to 80 °C

Find the recorded melting point belonging to `CCn1nc(-c2ncc(NCc3ccc(OC)cc3)nc2-c2ccccc2)ccc1=O` and report it.
148 to 150 °C

Please give the measured melting point for this molecule: `CCOC(=O)COc1cccc(C2C(C(=O)OCC)=C(C)NC(C)=C2C(=O)OCC)c1`
108 °C

Given `CN1CCC(Nc2ccccc2C(=N)c2ccccc2)CC1` , state its recorded melting point.
117 to 118 °C
